# Target Of Assay: T1, Mutant CD33-GFP M8 (K52A) on 293FT cells (UniProt P20138 18-364)
# T1 construct: whole, on cells; not shown: GFP fused to CD33
# T1 sequence (P20138 18-364 K52A): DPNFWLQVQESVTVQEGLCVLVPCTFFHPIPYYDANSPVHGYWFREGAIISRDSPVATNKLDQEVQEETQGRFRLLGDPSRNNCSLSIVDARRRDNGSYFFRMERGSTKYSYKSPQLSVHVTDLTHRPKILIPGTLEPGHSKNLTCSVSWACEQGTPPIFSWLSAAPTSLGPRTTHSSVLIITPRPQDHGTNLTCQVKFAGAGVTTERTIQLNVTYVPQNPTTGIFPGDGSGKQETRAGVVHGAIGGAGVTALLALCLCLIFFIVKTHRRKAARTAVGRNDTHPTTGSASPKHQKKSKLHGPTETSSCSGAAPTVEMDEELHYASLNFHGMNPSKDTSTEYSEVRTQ
# Test Description: FACS, mutant CD33-GFP on 293FT cells
Quantity Measured: FACS binding data

Lookup result for sdCD33_4 (VHH) VHH: QVKLEESGGGSVQAGESLRLSCTASGITFRDYDIDWYRQAPGKEREWLATITPSGTTHYPDSVKGRATISRDSAKNTVYLQMNSLKPEDTARYECNTLAYWGSGTQVTVSS ; measured FACS binding data: 0.15

Entry sdCD33_10 (VHH) VHH: QVQLVETGGGLVRAGGSLRLSCAASGRTADIYNIGWFRQAPGKEREFVAAITWIGRTPYYADAVKGRFAFSTDSAKNTVSLQMDNLKPEDTGVYYCNAAHYLEGNTDYYWGQGTQVTVSS , FACS binding data reported as 66.1

According to the records, this binder sdCD33_3 (VHH) VHH: DVQLVESGGGLVQPGGSLRLSCSVSGNIDRFYAMGWYRQAPGKQRELVAQLTNNEITTYGDSVEGQFSISGDFDANTVYLQMDSLKPEDTAVYYCHAHVTTTRWSQDYYWGQGTRVTVSS displays FACS binding data of 97.3

The binder identified as sdCD33_11 (VHH, sdAb from a naive llama phage library; also called 430; sdAb430) VHH: AVQLVESGGGLVQAGGSLRLSCAASGDTFANYAMGWFRQAPGKEREFVAAISWSDSSTHYADSVKGRFTIPRDNAKNAVYLQMDQLKPEDMAVYYCYAYIRGVGEVRYVDYWGQGTQVTVSS registered its FACS binding data at 97.1
